assay: Plasma concentration in C57Bl/6 mouse at 30 mg/kg, ip measured after 60 mins; format: ADME, organism-based
Quantity Name: concentration at 1 h
Note to self: number, then unit, no commentary.

Query: Consider the compound N#Cc1c(-c2ccccc2)nc2[nH]nc(-c3ccc(Cl)c(C(F)(F)F)c3)c2c1C1CC1 and give its measured concentration at 1 h.
Reply: 2800 nM
